- experiment.summary: Acute toxicity (LD50) in dogs
- condition.parameters: dog, in vivo, po, Dogs (Beagles), male
Where a name gives a salt, the structure may show the parent alone.
assay.readout: LD50

Find the recorded LD50 belonging to CCc1ccc(C(=O)C(C)CN2CCCCC2)cc1 (stereo not shown) [eperisone hydrochloride, Eperisone hydrochloride] and report it.
> 1080 mg/kg

* * *

- experiment.summary: Acute toxicity (LD50) in rats
- condition.parameters: rat, in vivo, iv, Rats (SD), male
Where a name gives a salt, the structure may show the parent alone.
assay.readout: LD50 (mg/kg)
A number alone suffices; assume mg/kg.

Find the recorded LD50 belonging to CCc1ccc(C(=O)C(C)CN2CCCCC2)cc1 (stereo not shown) [eperisone hydrochloride, Eperisone hydrochloride] and report it.
51
